species on record: Rattus norvegicus; assay: DrugMatrix - Regimen: Daily Repeat; type: toxicity, organism-based, Sprague-Dawley; parameters: regimen Daily Repeat, gender Male, age 6-8 weeks; conditions: in vivo, po, 0 mg/kg, 120 h, tissue Blood, route oral GAVAGE, dose level Control, time 5 day, vehicle 100 % WATER
Provide the reported NEUTROPHIL of each item.
Express your answer in %, writing the number without its unit.

get_value(item= CN(C)C(=O)Oc1cccc([N+](C)(C)C)c1.[Br-] [NEOSTIGMINE BROMIDE] , readout=NEUTROPHIL) returns 8.67

According to the records, this molecule CCCC(C)C1(CC)C(=O)NC(=O)NC1=O (stereo not given) [PENTOBARBITAL] displays NEUTROPHIL of 8.67

So, CNC1=Nc2ccc(Cl)cc2C(c2ccccc2)=[N+]([O-])C1 [CHLORDIAZEPOXIDE] ? Its NEUTROPHIL was 6.5

molecule NC12CC3CC(CC(C3)C1)C2 [AMANTADINE] , NEUTROPHIL observed: 6.83

Query CCN(CC)CCNC(=O)c1ccc(N)cc1 [PROCAINAMIDE] yields NEUTROPHIL of 12.67

Just so you know, measured NEUTROPHIL for CCN(C(C)=O)c1cccc(-c2ccnc3c(C#N)cnn23)c1 [ZALEPLON] came out at 6.83

NEUTROPHIL reported for this molecule CCN(CC)CCOC(=O)C1(C2CCCCC2)CCCCC1 [DICYCLOMINE] : 13.8

The molecule listed as NC(=O)c1cccnc1 [NIACINAMIDE] has a reported NEUTROPHIL of 9.17

Entry CN(C)CCC=C1c2ccccc2CCc2ccccc21 [AMITRIPTYLINE] — recorded NEUTROPHIL = 6.83

What the record says about O=c1[nH]c(=O)n(C2CCCO2)cc1F (stereo not given) [TEGAFUR] : NEUTROPHIL is 13.33

---

species: Rattus norvegicus; test: DrugMatrix - Regimen: Daily Repeat; type: toxicity, organism-based, Sprague-Dawley; set-up: regimen Daily Repeat, gender Male, age 6-8 weeks; settings: in vivo, po, 0 mg/kg, 120 h, tissue Blood, route oral GAVAGE, dose level Control, time 5 day, vehicle .5 % CMC
Can you tell me MEAN CORPUSCULAR VOLUME for the items I'm about to list?
Please reply with the bare figure in fL and do not write the unit itself.

Input C[C@]12CC[C@@H]3c4ccc(O)cc4CC[C@H]3[C@@H]1C[C@@H](O)[C@@H]2O [ESTRIOL] . Output MEAN CORPUSCULAR VOLUME: 61.53

Given item COc1ccccc1[N+](=O)[O-] [2-NITROANISOLE] , the value recorded as its MEAN CORPUSCULAR VOLUME is 61.78

response.value for COc1cc(OC)c(C(=O)CCCN2CCCC2)c(OC)c1 [BUFLOMEDIL] (field: MEAN CORPUSCULAR VOLUME) = 63.13

// NC(=O)N1c2ccccc2CC(=O)c2ccccc21 [OXCARBAZEPINE] : MEAN CORPUSCULAR VOLUME value = 61.82

Lab note: measured MEAN CORPUSCULAR VOLUME of CCCNC(=O)NS(=O)(=O)c1ccc(Cl)cc1 [CHLORPROPAMIDE] was 60.47

Noted for CN(C)CCN(Cc1cccs1)c1ccccn1 : its MEAN CORPUSCULAR VOLUME reads 65.97

Form: compound = C[C@@](Cc1ccc(O)c(O)c1)(NN)C(=O)O.O [CARBIDOPA] ; MEAN CORPUSCULAR VOLUME = 61.92

compound C[C@@H]1O[C@@H](O[C@H]2C[C@@H](O)[C@]3(CO)[C@H]4[C@H](O)C[C@]5(C)[C@@H](C6=CC(=O)OC6)CC[C@]5(O)[C@@H]4CC[C@]3(O)C2)[C@H](O)[C@H](O)[C@H]1O [OUABAIN] , MEAN CORPUSCULAR VOLUME observed: 64.7

CN1C(=O)CN=C(c2ccccc2)c2cc([N+](=O)[O-])ccc21 [NIMETAZEPAM] yielded MEAN CORPUSCULAR VOLUME of 63.72

// CN1CCN(C2=Nc3cc(Cl)ccc3Nc3ccccc32)CC1 [CLOZAPINE] : MEAN CORPUSCULAR VOLUME value = 60.47

Field MEAN CORPUSCULAR VOLUME (entry CN(C)C(=O)C(CCN1CCC(O)(c2ccc(Cl)cc2)CC1)(c1ccccc1)c1ccccc1 [LOPERAMIDE] ) reads 63.67

Input CCn1cc(C(=O)O)c(=O)c2cc(F)c(N3CCNC(C)C3)c(F)c21 (configuration not stated) [LOMEFLOXACIN] . Output MEAN CORPUSCULAR VOLUME: 59.12

The reported value for C#C[C@]1(O)CC[C@H]2[C@@H]3CCC4=CC(=O)CC[C@]4(C)[C@H]3CC[C@@]21C [ETHISTERONE] in terms of MEAN CORPUSCULAR VOLUME is 63.88

The compound listed as COc1ccc2c(c1OC)C(=O)O[C@@H]2[C@H]1c2c(cc3c(c2OC)OCO3)CCN1C [NOSCAPINE] shows MEAN CORPUSCULAR VOLUME equal to 63.88

The reported MEAN CORPUSCULAR VOLUME of the compound CCOc1nc2cccc(C(=O)O)c2n1Cc1ccc(-c2ccccc2-c2nnn[nH]2)cc1 was 62.58

response.value for CCCCC1=NC2(CCCC2)C(=O)N1Cc1ccc(-c2ccccc2-c2nnn[nH]2)cc1 [IRBESARTAN] (field: MEAN CORPUSCULAR VOLUME) = 61.43

Quick note, MEAN CORPUSCULAR VOLUME for CCC1=C(C)CN(C(=O)NCCc2ccc(S(=O)(=O)NC(=O)N[C@H]3CC[C@H](C)CC3)cc2)C1=O [GLIMEPIRIDE] landed at 63.67

---

organism: Rattus norvegicus; assay: DrugMatrix - Regimen: Daily Repeat; format: toxicity, organism-based, Sprague-Dawley; design: regimen Daily Repeat, gender Male, age 6-8 weeks; conditions: in vivo, po, 0 mg/kg, 120 h, tissue Plasma, route oral GAVAGE, dose level Control, time 5 day, vehicle .5 % CMC
Field: ALKALINE PHOSPHATASE. Provide a value for each of the compounds that follow.
Enter your answer as a number in u/L; do not include the unit.

C#C[C@]1(O)CC[C@H]2[C@@H]3CCC4=CC(=O)CC[C@]4(C)[C@H]3CC[C@@]21C yielded ALKALINE PHOSPHATASE of 391

The compound listed as CN(C)C(=O)C(CCN1CCC(O)(c2ccc(Cl)cc2)CC1)(c1ccccc1)c1ccccc1 [LOPERAMIDE] shows ALKALINE PHOSPHATASE equal to 337

response.value for CCCCC1=NC2(CCCC2)C(=O)N1Cc1ccc(-c2ccccc2-c2nnn[nH]2)cc1 (field: ALKALINE PHOSPHATASE) = 300.33

Looking up COc1cc(OC)c(C(=O)CCCN2CCCC2)c(OC)c1 , I found its ALKALINE PHOSPHATASE recorded as 405.67

So, CCOc1nc2cccc(C(=O)O)c2n1Cc1ccc(-c2ccccc2-c2nnn[nH]2)cc1 ? Its ALKALINE PHOSPHATASE was 362.33

So, CN1CCN(C2=Nc3cc(Cl)ccc3Nc3ccccc32)CC1 ? Its ALKALINE PHOSPHATASE was 377.5

Looking up C[C@@](Cc1ccc(O)c(O)c1)(NN)C(=O)O.O , I found its ALKALINE PHOSPHATASE recorded as 336

For reference, reported ALKALINE PHOSPHATASE for CN(C)CCN(Cc1cccs1)c1ccccn1 stands at 388

Short answer for C[C@]12CC[C@@H]3c4ccc(O)cc4CC[C@H]3[C@@H]1C[C@@H](O)[C@@H]2O : ALKALINE PHOSPHATASE was 352.33

Form: compound = NC(=O)N1c2ccccc2CC(=O)c2ccccc21 [OXCARBAZEPINE] ; ALKALINE PHOSPHATASE = 373.17

Reported ALKALINE PHOSPHATASE for C[C@@H]1O[C@@H](O[C@H]2C[C@@H](O)[C@]3(CO)[C@H]4[C@H](O)C[C@]5(C)[C@@H](C6=CC(=O)OC6)CC[C@]5(O)[C@@H]4CC[C@]3(O)C2)[C@H](O)[C@H](O)[C@H]1O was 351.83

Kindly note the recorded ALKALINE PHOSPHATASE for CCC1=C(C)CN(C(=O)NCCc2ccc(S(=O)(=O)NC(=O)N[C@H]3CC[C@H](C)CC3)cc2)C1=O [GLIMEPIRIDE] , which is 337

Note to self: ALKALINE PHOSPHATASE recorded for COc1ccc2c(c1OC)C(=O)O[C@@H]2[C@H]1c2c(cc3c(c2OC)OCO3)CCN1C was 391

# compound CCn1cc(C(=O)O)c(=O)c2cc(F)c(N3CCNC(C)C3)c(F)c21 (stereo not drawn) ; its ALKALINE PHOSPHATASE = 340.33

# compound COc1ccccc1[N+](=O)[O-] ; its ALKALINE PHOSPHATASE = 377.67

The compound identified as C[C@H]1[C@H](NC(=O)/C(=N\OC(C)(C)C(=O)O)c2csc(N)n2)C(=O)N1S(=O)(=O)O registered its ALKALINE PHOSPHATASE at 336

Form field ALKALINE PHOSPHATASE, entry CCCNC(=O)NS(=O)(=O)c1ccc(Cl)cc1 [CHLORPROPAMIDE] : 377.5

The compound CN1C(=O)CN=C(c2ccccc2)c2cc([N+](=O)[O-])ccc21 showed ALKALINE PHOSPHATASE equal to 419

Cited source for all entries: ChEMBL document CHEMBL3885881
